System: UACC-257 melanoma
Test: NCI tumour cell line growth inhibition, 48 h
property name: TGI

Example entries begin here.
compound	target under test	property name	reported result
c1c2c(cc(-n3nnc4c3CCCCCC4)c1-n1nnc3c1CCCCCC3)CCCCCC2	UACC-257 melanoma	TGI	32.9 µM
C=C(C)C1C/C=C(/C)CCCC2(CCC3=C(CC(C(=C)C)C/C=C(/C)CCC3)O2)C(=O)C1 (stereo not drawn)	UACC-257 melanoma	TGI	> 100 µM
Oc1ccccc1-c1nn(CNc2ccccc2Cl)c(=S)o1	UACC-257 melanoma	TGI	> 100 µM
CCOC(=O)/C=C(\C(=O)OCC)n1ccc(=O)n(Cc2cn(COCCOC(C)=O)nn2)c1=O	UACC-257 melanoma	TGI	47.2 µM
O=S(=O)(CCCl)c1ccc(Cl)cc1	UACC-257 melanoma	TGI	11.6 µM
COc1cnc2c(c1)C(=O)c1c-2n(CCCN2CCN(C)CC2)c(=O)c2cc([N+](=O)[O-])ccc12	UACC-257 melanoma	TGI	5.87 µM

Then this compound:
**Query** Which TGI value belongs to "Cc1c(C(=O)O)oc2ccc([N+](=O)[O-])cc12" ?
**Result** > 100 µM

Values compiled from PubChem BioAssay (NCI).
